Molecular target: T1, Human TROP2 ECD (31-274 AA), biotinylated (human, UniProt P09758 31-274, biotinylated (site not stated))
T1 construct: also called tumor-associated calcium signal transducer 2; Human TROP2-biotin
T1 sequence: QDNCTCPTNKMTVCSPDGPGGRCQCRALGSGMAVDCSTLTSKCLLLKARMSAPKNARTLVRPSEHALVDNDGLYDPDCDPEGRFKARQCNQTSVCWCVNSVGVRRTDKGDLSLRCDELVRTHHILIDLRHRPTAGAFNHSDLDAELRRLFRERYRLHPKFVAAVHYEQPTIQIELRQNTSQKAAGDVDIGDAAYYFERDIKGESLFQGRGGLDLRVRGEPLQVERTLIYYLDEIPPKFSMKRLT
Test: BLI (Octet), dissociation half-life from biotinylated human TROP2 ECD

binder: TBD-23 (anti-TROP2 Fab, HC V110A) (Fab, V domains shown) VH: QVQLQQSGSELKKPGASVKVSCKASGYTFTNYGMNWVKQAPGQGLKWMGWINTYTGEPTYTDDFKGRFAFSLDTSVSTAYLQISSLKADDTAVYFCARGGFGSSYWYFDAWGQGSLVTVSS VL: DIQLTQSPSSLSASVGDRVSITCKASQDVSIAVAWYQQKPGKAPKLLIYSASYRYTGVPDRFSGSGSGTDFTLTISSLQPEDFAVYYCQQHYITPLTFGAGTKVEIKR
t1/2 / min: 34
--
binder: TBD-22 (anti-TROP2 Fab, HC D109A) (Fab, V domains shown, also called TBD-22 (HC D109A mutant)) VH: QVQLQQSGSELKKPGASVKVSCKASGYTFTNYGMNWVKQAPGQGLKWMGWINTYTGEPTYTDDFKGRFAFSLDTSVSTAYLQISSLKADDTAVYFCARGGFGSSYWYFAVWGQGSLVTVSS VL: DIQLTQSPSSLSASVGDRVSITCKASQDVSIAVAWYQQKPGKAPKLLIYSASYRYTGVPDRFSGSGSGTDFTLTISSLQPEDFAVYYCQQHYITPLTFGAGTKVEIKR
t1/2 / min: 33
--
binder: TBD-21 (anti-TROP2 Fab, HC F108A) (Fab, V domains shown, also called TBD-21 (HC F108A mutant)) VH: QVQLQQSGSELKKPGASVKVSCKASGYTFTNYGMNWVKQAPGQGLKWMGWINTYTGEPTYTDDFKGRFAFSLDTSVSTAYLQISSLKADDTAVYFCARGGFGSSYWYADVWGQGSLVTVSS VL: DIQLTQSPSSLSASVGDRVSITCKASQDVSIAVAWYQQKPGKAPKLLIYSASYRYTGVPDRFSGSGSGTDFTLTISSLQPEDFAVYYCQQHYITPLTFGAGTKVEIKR
t1/2 / min: 8
--
binder: TBD-17 (anti-TROP2 Fab, HC S104A) (Fab, V domains shown, also called TBD-17 (HC S104A mutant)) VH: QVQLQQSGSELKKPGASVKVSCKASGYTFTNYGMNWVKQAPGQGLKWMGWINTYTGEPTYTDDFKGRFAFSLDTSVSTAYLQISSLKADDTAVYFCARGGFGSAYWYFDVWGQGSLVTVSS VL: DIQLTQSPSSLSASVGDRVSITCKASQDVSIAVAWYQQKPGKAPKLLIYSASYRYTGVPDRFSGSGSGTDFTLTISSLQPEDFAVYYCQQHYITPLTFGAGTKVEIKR
t1/2 / min: 24
--
binder: TBD-20 (anti-TROP2 Fab, HC Y107A) (Fab, V domains shown) VH: QVQLQQSGSELKKPGASVKVSCKASGYTFTNYGMNWVKQAPGQGLKWMGWINTYTGEPTYTDDFKGRFAFSLDTSVSTAYLQISSLKADDTAVYFCARGGFGSSYWAFDVWGQGSLVTVSS VL: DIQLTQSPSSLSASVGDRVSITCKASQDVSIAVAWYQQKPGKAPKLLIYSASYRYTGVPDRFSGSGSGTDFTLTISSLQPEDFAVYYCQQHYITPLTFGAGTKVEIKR
t1/2 / min: 10
